Source: patent US20240376185A1

Attribute: Effective SDA Concentration at A450 0.15
# SUBJECT OF TEST: tetanus neurotoxin (TeNT), authentic tetanus holotoxin (Clostridium tetani, UniProt P04958 2-1315)
# Sequence (P04958 2-457 limits assumed, chain 1 of 2): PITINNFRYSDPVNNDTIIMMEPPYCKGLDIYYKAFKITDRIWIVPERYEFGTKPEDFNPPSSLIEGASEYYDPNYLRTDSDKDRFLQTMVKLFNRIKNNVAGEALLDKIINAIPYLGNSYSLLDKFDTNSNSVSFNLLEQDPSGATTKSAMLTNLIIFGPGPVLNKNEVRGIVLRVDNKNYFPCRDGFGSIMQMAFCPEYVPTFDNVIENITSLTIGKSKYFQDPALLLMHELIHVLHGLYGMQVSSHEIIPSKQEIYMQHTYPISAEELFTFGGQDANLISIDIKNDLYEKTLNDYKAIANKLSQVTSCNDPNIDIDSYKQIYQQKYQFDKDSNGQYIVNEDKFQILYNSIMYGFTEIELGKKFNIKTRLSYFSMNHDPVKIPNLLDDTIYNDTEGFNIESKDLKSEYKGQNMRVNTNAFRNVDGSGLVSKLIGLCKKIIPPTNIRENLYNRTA
# Sequence (P04958 458-1315 limits assumed, chain 2 of 2): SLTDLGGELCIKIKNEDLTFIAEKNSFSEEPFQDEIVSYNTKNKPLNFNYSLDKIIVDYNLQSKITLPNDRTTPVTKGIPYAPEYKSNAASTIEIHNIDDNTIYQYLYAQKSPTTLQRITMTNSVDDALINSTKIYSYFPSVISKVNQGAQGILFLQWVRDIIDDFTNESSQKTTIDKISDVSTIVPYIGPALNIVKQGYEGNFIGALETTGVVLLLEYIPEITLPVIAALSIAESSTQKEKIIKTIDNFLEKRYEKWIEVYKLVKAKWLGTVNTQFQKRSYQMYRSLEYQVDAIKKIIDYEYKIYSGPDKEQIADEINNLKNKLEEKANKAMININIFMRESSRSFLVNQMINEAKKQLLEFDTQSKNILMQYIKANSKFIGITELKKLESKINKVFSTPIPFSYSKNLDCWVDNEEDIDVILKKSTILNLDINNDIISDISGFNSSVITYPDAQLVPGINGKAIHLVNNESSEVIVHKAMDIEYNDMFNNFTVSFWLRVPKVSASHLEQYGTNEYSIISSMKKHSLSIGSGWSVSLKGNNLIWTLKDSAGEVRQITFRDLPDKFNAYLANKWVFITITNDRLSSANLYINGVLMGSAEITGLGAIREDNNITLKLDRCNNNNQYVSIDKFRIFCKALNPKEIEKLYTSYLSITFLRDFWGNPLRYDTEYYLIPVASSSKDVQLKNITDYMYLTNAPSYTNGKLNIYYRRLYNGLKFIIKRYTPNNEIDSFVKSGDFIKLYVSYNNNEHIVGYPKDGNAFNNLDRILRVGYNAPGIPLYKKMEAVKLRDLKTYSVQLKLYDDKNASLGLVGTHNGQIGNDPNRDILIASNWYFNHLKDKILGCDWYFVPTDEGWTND
# PROTOCOL SUMMARY: ELISA: directly coated TeNT, goat anti-llama Ig PO
VALUE TYPE: Effective SDA Concentration at A450 0.15 (ng/mL)

{"BINDER": "SVT06L (VHH) VHH: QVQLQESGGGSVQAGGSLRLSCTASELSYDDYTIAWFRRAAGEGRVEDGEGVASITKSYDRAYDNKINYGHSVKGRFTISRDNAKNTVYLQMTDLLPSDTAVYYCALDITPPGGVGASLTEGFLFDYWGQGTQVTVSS", "QUANTITY UNIT": "ng/mL", "BOUND OPERATOR": "=", "ENDPOINT RESULT": 14}
{"BINDER": "SVT16L (VHH) VHH: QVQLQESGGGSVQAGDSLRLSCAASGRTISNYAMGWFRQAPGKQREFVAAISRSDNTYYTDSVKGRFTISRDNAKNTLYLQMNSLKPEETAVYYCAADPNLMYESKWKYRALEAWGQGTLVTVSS", "QUANTITY UNIT": "ng/mL", "BOUND OPERATOR": "=", "ENDPOINT RESULT": 5}
{"BINDER": "SVT06-GS2-SVG13M4-H6 (bispecific antibody) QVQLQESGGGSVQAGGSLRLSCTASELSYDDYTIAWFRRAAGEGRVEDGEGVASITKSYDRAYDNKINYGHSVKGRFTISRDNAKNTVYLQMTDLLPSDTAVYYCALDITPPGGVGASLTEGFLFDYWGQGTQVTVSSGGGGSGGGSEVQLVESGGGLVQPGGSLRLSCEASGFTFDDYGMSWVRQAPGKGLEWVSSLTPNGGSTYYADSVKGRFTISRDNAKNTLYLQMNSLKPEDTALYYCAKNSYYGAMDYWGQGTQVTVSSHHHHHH", "QUANTITY UNIT": "ng/mL", "BOUND OPERATOR": "=", "ENDPOINT RESULT": 2}
{"BINDER": "SVT15-3FW4M-GS2-SVG06M4-H6 (bispecific antibody) QVQLQESGGGLVQTGGSLRLSCRASGRAFANYHFGWFRQAPGKDREFVASISWKGGSTYYANFALGRFTSSVDRAESSVYLQMSGLTPEDTATYYCAAHDGGDWNYHTGMDYWGQGTQVTVSSGGGGSGGGSEVQLVESGGALVQPGGSLRLSCAASGFPFSAYDMTWVRQAPGQGLEWVSTIHKSGGITTYADSVKGRFTISRDNAKNTLYLQMNNLESEDTAVYYCAKALRAHNSDYVGRNALGSWGQGTQVTVSSHHHHHH", "QUANTITY UNIT": "ng/mL", "BOUND OPERATOR": "=", "ENDPOINT RESULT": 4.3}
{"BINDER": "SVG13L (VHH) VHH: QVQLQESGGGLVQPGGSLRLSCEASGFTFDDYGMSWVRQAPGKGLEWVSSLTPNGGSTYYADSVKGRFTISRDNAKNTLYLQMNSLKPEDTALYYCAKNSYYGAMDYWGKGTLVTVSS", "QUANTITY UNIT": "ng/mL", "BOUND OPERATOR": ">", "ENDPOINT RESULT": 1000}
{"BINDER": "SVT02-GS2-SVG13M4-H6 (bispecific antibody) QVQLQQSGGGSVQAGGSLRLSCVGPQRTFSTYGMGWFRQAPGKEREFVAGINYKGDTTYYADSVKGRFTISRDNAKNTLYLQMDSLKPEDRAVYQCARKGGLGGDYRDAGQYRYWGQGTQVTVSSGGGGSGGGSEVQLVESGGGLVQPGGSLRLSCEASGFTFDDYGMSWVRQAPGKGLEWVSSLTPNGGSTYYADSVKGRFTISRDNAKNTLYLQMNSLKPEDTALYYCAKNSYYGAMDYWGQGTQVTVSSHHHHHH", "QUANTITY UNIT": "ng/mL", "BOUND OPERATOR": ">", "ENDPOINT RESULT": 1000}
